meta.source: the supplement of paper PMC4466140

target: AgBzz1-D2; experiment: SPOT peptide array binding signal intensity (averaged, normalized) (arbitrary units (background-subtracted, floor 0; scale differs between SH3 domains)); higher = stronger binding of the SH3 domain to the peptide
Rule: SPOT peptide array binding signal intensity under 50 gives NO, otherwise YES.

Q) hey, is SPOT peptide array binding signal intensity for this one >= 50? KDKSRPPRPPPKPLH
A) YES

Q) hey, is SPOT peptide array binding signal intensity for this one >= 50? LKVTPGRRAPTISKI
A) NO

Q) hey, is SPOT peptide array binding signal intensity for this one >= 50? ITHRLRISIPGITGR
A) YES

Q) hey, is SPOT peptide array binding signal intensity for this one >= 50? SSSSSPPPLPTRRDH
A) NO

Q) hey, is SPOT peptide array binding signal intensity for this one >= 50? NGRRRPKFRVQLSGN
A) NO

Q) hey, is SPOT peptide array binding signal intensity for this one >= 50? VAPPPLPNRQLPNLD
A) NO

Q) hey, is SPOT peptide array binding signal intensity for this one >= 50? RKNRAPPQRPRFNRE
A) YES

Q) hey, is SPOT peptide array binding signal intensity for this one >= 50? NNQRRKPLLLNIGDH
A) YES

Q) hey, is SPOT peptide array binding signal intensity for this one >= 50? LKRITSPPLPPRADS
A) YES

Q) hey, is SPOT peptide array binding signal intensity for this one >= 50? RKQRSIPLSPIVPES
A) NO

Q) hey, is SPOT peptide array binding signal intensity for this one >= 50? MARRRLPDRPPNGIG
A) YES

Q) hey, is SPOT peptide array binding signal intensity for this one >= 50? ANNQGPPNLPARDKS
A) NO

Q) hey, is SPOT peptide array binding signal intensity for this one >= 50? NLKKRPPTAPQRKIS
A) YES

Q) hey, is SPOT peptide array binding signal intensity for this one >= 50? PLRRTVMSLPGNHDI
A) NO

Q) hey, is SPOT peptide array binding signal intensity for this one >= 50? PPPPPPPPPPPLPQS
A) NO

Q) hey, is SPOT peptide array binding signal intensity for this one >= 50? SKAKRPKFLLDLQIK
A) NO

Q) hey, is SPOT peptide array binding signal intensity for this one >= 50? ALKQKKIPPPFKPHL
A) NO

Q) hey, is SPOT peptide array binding signal intensity for this one >= 50? RRRIAYPFYPFKKLG
A) NO

Q) hey, is SPOT peptide array binding signal intensity for this one >= 50? ALFRLSFFFPLDPAY
A) YES

Q) hey, is SPOT peptide array binding signal intensity for this one >= 50? QQEQNTPPLPPKPKS
A) NO

Q) hey, is SPOT peptide array binding signal intensity for this one >= 50? VQKRKLPLPGSIASA
A) YES

Q) hey, is SPOT peptide array binding signal intensity for this one >= 50? VNIPSPSSSPPPIPK
A) NO

Q) hey, is SPOT peptide array binding signal intensity for this one >= 50? FPPKRKPLLRPQRSD
A) YES

Q) hey, is SPOT peptide array binding signal intensity for this one >= 50? QPQRTAPKPPISAPR
A) NO

Q) hey, is SPOT peptide array binding signal intensity for this one >= 50? AAAPKHAPPPVPNET
A) NO

Q) hey, is SPOT peptide array binding signal intensity for this one >= 50? SLSRRRFSLPSMPNV
A) YES

Q) hey, is SPOT peptide array binding signal intensity for this one >= 50? RLSRLLLSLPPESFT
A) YES

Q) hey, is SPOT peptide array binding signal intensity for this one >= 50? QRKSLRRPTLSKPAV
A) NO

Q) hey, is SPOT peptide array binding signal intensity for this one >= 50? LKHGWKPLRPIKLIS
A) NO

Q) hey, is SPOT peptide array binding signal intensity for this one >= 50? LYEAMPPTLPHRDWK
A) NO
